Give viability, T/C for every item shown.
# System: 454973-116-R2-J3-PDC spheroids, viability, % test/control
# Assay notes: Anticancer human tumor 454973-116-R2-J3-PDC patient-derived pancreatic carcinoma cell line growth inhibition [GQUAD]
# Test context: second compound 10 µM; first compound 0.1 µM; stronger effect = lower value; spheroids with HUVEC and MSC
Numbers only, in %.

Guide cases for viability, T/C, answers given:
{"Compound": "C=CC(=O)N1CCN(c2nc(=O)n(-c3c(C)ccnc3C(C)C)c3nc(-c4c(O)cccc4F)c(F)cc23)C(C)C1 (stereo not given) + CN(C)c1ccc(Nc2c3ccc(NC(=O)CCN4CCCC4)cc3nc3cc(NC(=O)CCN4CCCC4)ccc23)cc1", "Assayed target": "454973-116-R2-J3-PDC spheroids, viability, % test/control", "viability, T/C (%)": 77.9}
{"Compound": "Cc1cccc(N(C)C(=O)C2C(O)CCN2c2nc(C)cc(C(F)(F)F)c2C#N)c1 (stereo not given) + CN(C)c1ccc(Nc2c3ccc(NC(=O)CCN4CCCC4)cc3nc3cc(NC(=O)CCN4CCCC4)ccc23)cc1", "Assayed target": "454973-116-R2-J3-PDC spheroids, viability, % test/control", "viability, T/C (%)": 74.7}
{"Compound": "C#Cc1c(F)ccc2cc(O)cc(-c3ncc4c(N5CC6CCC(C5)N6)nc(OCC56CCCN5CC(F)C6)nc4c3F)c12 (stereo not given) + CN(C)c1ccc(Nc2c3ccc(NC(=O)CCN4CCCC4)cc3nc3cc(NC(=O)CCN4CCCC4)ccc23)cc1", "Assayed target": "454973-116-R2-J3-PDC spheroids, viability, % test/control", "viability, T/C (%)": 26.7}
{"Compound": "CCCS(=O)(=O)Nc1ccc(F)c(C(=O)c2c[nH]c3ncc(-c4ccc(Cl)cc4)cc23)c1F + CN(C)c1ccc(Nc2c3ccc(NC(=O)CCN4CCCC4)cc3nc3cc(NC(=O)CCN4CCCC4)ccc23)cc1", "Assayed target": "454973-116-R2-J3-PDC spheroids, viability, % test/control", "viability, T/C (%)": 70}

Observed viability, T/C on 454973-116-R2-J3-PDC spheroids, viability, % test/control, entry COc1cccc2c1C(=O)c1c(O)c3c(c(O)c1C2=O)CC(O)(C(=O)CO)CC3OC1CC(N)C(O)C(C)O1 (stereo not given) + Cc1cnc(CNC(=O)c2c(=O)c3ccc(N4CCCN(C)CC4)nc3n3c2sc2ccccc23)cn1 , equals 20

====

# Tested on: 454973-116-R2-J3-PDC spheroids, viability, % test/control
# Assay notes: Anticancer human tumor 454973-116-R2-J3-PDC cell line growth inhibition [GQUAD];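 also: spheroids exposed to compounds for seven days; 100% = DMSO vehicle control viability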
# Test context: second compound 3.16 µM; first compound 0.00316 µM; stronger effect = lower value; spheroids with HUVEC and MSC
Quantity name: viability, T/C

{"Compound": "CC[C@@]1(O)C(=O)OCc2c1cc1n(c2=O)Cc2cc3c(CN(C)C)c(O)ccc3nc2-1 + Cc1[nH]c2ccc(F)cc2c1-c1nc2c3cccnc3c3ncccc3c2[nH]1", "Assayed target": "454973-116-R2-J3-PDC spheroids, viability, % test/control", "viability, T/C": "101%"}
{"Compound": "CC[C@@]1(O)C(=O)OCc2c1cc1n(c2=O)Cc2cc3c(CN(C)C)c(O)ccc3nc2-1 + Cc1cnc(CNC(=O)c2c(=O)c3ccc(N4CCCN(C)CC4)nc3n3c2sc2ccccc23)cn1", "Assayed target": "454973-116-R2-J3-PDC spheroids, viability, % test/control", "viability, T/C": "63.4%"}
{"Compound": "Cc1[nH]c2ccccc2c1CCNCc1ccc(/C=C/C(=O)NO)cc1 + Cc1cnc(CNC(=O)c2c(=O)c3ccc(N4CCCN(C)CC4)nc3n3c2sc2ccccc23)cn1", "Assayed target": "454973-116-R2-J3-PDC spheroids, viability, % test/control", "viability, T/C": "64.3%"}
{"Compound": "Cc1[nH]c2ccccc2c1CCNCc1ccc(/C=C/C(=O)NO)cc1 + Cc1[nH]c2ccc(F)cc2c1-c1nc2c3cccnc3c3ncccc3c2[nH]1", "Assayed target": "454973-116-R2-J3-PDC spheroids, viability, % test/control", "viability, T/C": "94.3%"}
{"Compound": "CC[C@@]1(O)C(=O)OCc2c1cc1n(c2=O)Cc2cc3c(CN(C)C)c(O)ccc3nc2-1 + CN(C)c1ccc(Nc2c3ccc(NC(=O)CCN4CCCC4)cc3nc3cc(NC(=O)CCN4CCCC4)ccc23)cc1", "Assayed target": "454973-116-R2-J3-PDC spheroids, viability, % test/control", "viability, T/C": "82.4%"}

// batch mode: one viability, T/C value per listed entry
1. Cn1ncnc1[C@H]1c2n[nH]c(=O)c3cc(F)cc(c23)N[C@@H]1c1ccc(F)cc1 + Cc1cnc(CNC(=O)c2c(=O)c3ccc(N4CCCN(C)CC4)nc3n3c2sc2ccccc23)cn1
2. CCc1c2c(nc3ccc(O)cc13)-c1cc3c(c(=O)n1C2)COC(=O)[C@]3(O)CC + Cc1[nH]c2ccc(F)cc2c1-c1nc2c3cccnc3c3ncccc3c2[nH]1

1. 53.4%
2. 21.1%
